Assay System: HIV-1 Env of isolate MGRM-C-005 (subtype C) (HIV-1)
Procedure Summary: cell-based or functional assay
Value Kind: IC50 (µg/mL), pseudovirus neutralization

- PGT-123 (antibody, V domains shown) VH: QLHLQESGPGLVKPPETLSLTCSVSGASINDAYWSWIRQSPGKRPEWVGYVHHSGDTNYNPSLKRRVTFSLDTAKNEVSLKLVDLTAADSATYFCARALHGKRIYGIVALGELFTYFYMDVWGKGTAVTVSS VL: SSMSVSPGETAKISCGKESIGSRAVQWYQQKPGQPPSLIIYNNQDRPAGVPERFSASPDFRPGTTATLTITNVDAEDEADYYCHIYDARGGTNWVFDRGTTLTVL: 0.012
- PGT-125 (antibody, V domains shown) VH: QSQLQESGPRLVEASETLSLTCNVSGESTGACTYFWGWVRQAPGKGLEWIGSLSHCQSFWGSGWTFHNPSLKSRLTISLDTPKNQVFLKLTSLTAADTATYYCARFDGEVLVYNHWPKPAWVDLWGRGIPVTVSS VL: QSALTQPPSASGSPGQSITISCNGTATNFVSWYQQFPDKAPKLIIFGVDKRPPGVPDRFSGSRSGTTASLTVSRLQTDDEAVYYCGSLVGNWDVIFGGGTTLTVL: 2.09
- PGT-127 (antibody, V domains shown) VH: QPQLQESGPGLVEASETLSLTCTVSGDSTGRCNYFWGWVRQPPGKGLEWIGSLSHCRSYYNTDWTYHNPSLKSRLTISLDTPKNQVFLRLTSVTAADTATYYCARFGGEVLVYRDWPKPAWVDLWGRGTLVVTVS VL: QSALTQPPSASGSPGQSITISCTGTSNNFVSWYQQYPGKAPKLVIYEVNKRPSGVPDRFSGSKSGSTASLTVSGLQADDEGVYYCSSLVGNWDVIFGGGTKLTVL: 0.57
- PGT-126 (antibody, V domains shown) VH: QPQLQESGPGLVEASETLSLTCTVSGDSTAACDYFWGWVRQPPGKGLEWIGGLSHCAGYYNTGWTYHNPSLKSRLTISLDTPKNQVFLKLNSVTAADTAIYYCARFDGEVLVYHDWPKPAWVDLWGRGTLVTVSS VL: QSALTQPPSASGSPGQSISISCTGTSNRFVSWYQQHPGKAPKLVIYGVNKRPSGVPDRFSGSKSGNTASLTVSGLQTDDEAVYYCSSLVGNWDVIFGGGTKLTVL: 0.298

Numbers sourced from patent US20240132578A1.
